B1: LINE1-mini (parent)
chain: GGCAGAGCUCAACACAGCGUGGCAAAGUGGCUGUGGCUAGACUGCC

- Variants of: B1
- procedure summary: self-cleavage, relative activity (ratio to wild type); higher = more cleavage; in vitro, sequencing; the parent is a self-cleaving ribozyme
Entry flag: Fulfilled if self-cleavage reaches 0.06; Not fulfilled if it does not.

Quick check, self-cleavage >= 0.06? U28G U43G
Not fulfilled

Quick check, self-cleavage >= 0.06? G29C G33U
Fulfilled

Quick check, self-cleavage >= 0.06? C10U U43G
Fulfilled

Quick check, self-cleavage >= 0.06? C13A A39C
Fulfilled

Quick check, self-cleavage >= 0.06? G2U G7C
Not fulfilled

Quick check, self-cleavage >= 0.06? A16U A39G
Fulfilled

Reference source for all entries: the RNAGym collection of RNA variant scans (doi:10.7554/elife.90254)
